Target: Alpha-2C adrenergic receptor (hα2CAR) (Homo sapiens)
Sequence (P18825 whole entry): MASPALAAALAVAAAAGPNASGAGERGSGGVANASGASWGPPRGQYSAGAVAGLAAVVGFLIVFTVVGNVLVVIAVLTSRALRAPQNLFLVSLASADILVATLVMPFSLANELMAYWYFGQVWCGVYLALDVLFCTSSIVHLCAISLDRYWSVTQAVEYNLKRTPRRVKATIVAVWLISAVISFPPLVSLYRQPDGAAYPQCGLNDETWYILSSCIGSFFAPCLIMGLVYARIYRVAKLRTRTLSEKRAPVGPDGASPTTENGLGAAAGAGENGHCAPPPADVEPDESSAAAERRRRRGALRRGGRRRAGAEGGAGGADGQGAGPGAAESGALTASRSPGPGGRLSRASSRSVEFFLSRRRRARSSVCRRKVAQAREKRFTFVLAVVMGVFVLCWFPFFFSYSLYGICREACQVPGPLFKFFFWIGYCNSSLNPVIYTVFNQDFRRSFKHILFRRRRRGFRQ
Test: hα2CAR functional agonist assay (cAMP, HTRF, CHO cells)
Details: agonist effect; mean ± SD, n = 3
From the text: The in-house assay protocol and experimental conditions are reported in our previous reports. The functional effect of dieckol and PFF-A was characterized based on their modulation effect on cytosolic Ca^2+ ion mobilization using a fluorimetric detection method or by measuring their effect on cAMP modulation using homogeneous time-resolved fluorescence (HTRF) detection. […]
RECORDED_ENDPOINT: EC50 (µM)
Note: unit µM is implicit; provide only the numeric part.

response.value for Oc1cc(O)cc(Oc2c(O)cc(O)c3c2Oc2c(O)cc4oc5c(Oc6cc(O)cc(O)c6)c(O)cc(O)c5c4c2O3)c1 [PFF-A, phlorofucofuroeckol-A] (field: EC50) = 23.7

Entry under test: Oc1cc(O)cc(Oc2c(O)cc(O)c3c2Oc2c(O)cc(Oc4c(O)cc(Oc5c(O)cc(O)c6c5Oc5c(O)cc(O)cc5O6)cc4O)cc2O3)c1 [Dieckol, dieckol] . Its EC50 was 98.8
